B1: USP39 (parent)
chain: TLSEAYIQIWKRRDNDETNQQGA

Variants of: B1
Test: protein stability index of a GFP-peptide fusion (GPS, HEK-293T) (PSI 1-6); higher = more stable;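 note: lentivirally expressed fusions sorted by FACS into six bins by GFP to DsRed ratio, PSI derived from sequencing read proportions per bin multiplied by bin number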
Settings: c terminus: native
observed-property: protein stability index
Answer as a number with no unit attached.

Look over these answered cases.
>>> df
   mutation_notation  reported
0               Q20K      2.14
1               A23L      3.89
2               D16N      2.67
3                I7E      3.69
4               E17N      1.77
5               Q21K      3.59
6               D14K      2.67
7                L2Q      3.35
8               Q21H      2.05
9               R13P      2.46

What the record says about G22F : protein stability index is 3

What the record says about I7H : protein stability index is 3.07

What the record says about A5I : protein stability index is 2.02

What the record says about D14L : protein stability index is 1.94

What the record says about S3M : protein stability index is 2.01

What the record says about R12G : protein stability index is 3.15
